# SUBJECT_OF_TEST: T1, human GLP-1 receptor (human, UniProt P43220 24-463)
# T1 construct: whole, on cells
# ASSAY_INFO: SPA competition vs 125I-GLP-1(7-36)NH2, hGLP-1R BHK membranes, low HSA
*1 amine or outer side, *2 acyl side, *3 side chain or, on linkers, in order; H or OH if unused. Where no end group is shown, it is not given here. Side-chain parts run from the residue outwards. [ ]: non-standard residue; d: D form. The star is where a group is joined. code 2xAEEA = O=C(COCCOCCN[*:1])NCCOCCOCC(=O)[*:2]; C20 diacid = O=C(O)CCCCCCCCCCCCCCCCCCC(=O)*; γGlu = O=C(O)[C@H](CCC(=O)[*:2])N[*:1]; Trx = NC[C@H]1CC[C@H](C(=O)O)CC1; code LysOEG = not defined here; Lys(Bis) = not defined here; AEEA = NCCOCCOCC(=O)O; Aib = CC(C)(N)C(=O)O
What IC50 was measured for each of the following?
Quick note: give the figure in nM, leave out the unit.

IC50 for H[Aib]EGTFTSDVSSYLEEQAAREFIAWLVRGRGEPPGK([code LysOEG-AEEA-γGlu-Trx-C20 diacid)(OEG-AEEA-γGlu-Trx-C20 diacid]) (reading uncertain, Side chain read from the name: eps-Lys(Bis) branched linker, each leg C20 diacid-Trx-gGlu-2xOEG) ?
2.9

IC50 for H[Aib]EGTFTSDVSSYLEEQAAREFIAWLVRGRPK([code LysOEG-AEEA-AEEA-AEEA-AEEA-AEEA-γGlu-Trx-C20 diacid)(OEG-AEEA-AEEA-AEEA-AEEA-AEEA-γGlu-Trx-C20 diacid]) (reading uncertain, Side chain read from the name: eps-Lys(Bis) branched linker, each leg C20 diacid-Trx-gGlu-6xOEG) ?
0.57

IC50 for H[Aib]EGTFTSDVSSYLEEQAAREFIAWLVRGRGSSPAAK([Lys(Bis)-code 2xAEEA-AEEA-γGlu-Trx-C20 diacid]) (reading uncertain, Side chain read from the name: eps-Lys(Bis) branched linker, each leg C20 diacid-Trx-gGlu-2xOEG) ?
4.8

IC50 for H[Aib]EGTFTSDVSSYLEEQAAREFIAWLVRGRGK([code LysOEG-AEEA-γGlu-C20 diacid)(OEG-AEEA-γGlu-C20 diacid]) (reading uncertain; also: printed as N{Alpha}([Aib8,Glu22,Arg26,Arg34]-GLP-1-(7-37)-peptidyl)-N{Epsilon}[(2S)-2,6-bis[[2-[2-[2-[[2-[2-[2-[[(4S)-4-carboxy-4-(19-carboxynonadecanoylamino)butanoyl]amino]ethoxy]ethoxy]acetyl]amino]ethoxy]ethoxy]acetyl]amino]hexanoyl]Lys, Side chain read from the name: eps-Lys(Bis) branched linker, each leg C20 diacid-gGlu-2xOEG) ?
0.45
